Value source: PubChem BioAssay

- test_protocol: CREB reporter modulators under forskolin, primary screen, cell-based, PC12, CRE-LacZ reporter, forskolin-stimulated (AID 1146);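 further: PC12 cells with 6xCRE LacZ reporter stimulated by forskolin 10 µM; beta-galactosidase reporter signal reflecting CREB driven transcription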
- protocol_conditions: luminescence, 4.5 h, higher = more signal, called active from +8 up or from −8 down
Active and inactive are the calls of the source.
reported_property: z-score

Give z-score for O=C1[C@@]23C=C(Br)[C@H](C[C@@H]2COC3)[C@@]12CO2
2.56 (inactive)

Supply measured z-score of O=C(NCC(O)CO)[C@@]1(CCS(=O)(=O)c2ccccc2)COC(c2ccc(OCCCO)cc2)=N1 (some centres not stated) in your reply.
0.0138 (inactive)

Fill in reported z-score for this entry: C=C(/C(=C/C[C@H](OC(=O)c1ccncc1)c1ccccc1OCCO)c1cnc2ccccc2c1)C(C)C
1.5 (inactive)

Using known records, supply z-score for Cc1ccc(N2C(=O)c3ccccc3[C@](C)(C(=O)NCc3ccccc3)[C@@H]2c2ccc(CO)cc2)nc1
-1.32 (inactive)

Please give measured z-score of the following entry: O=c1cccc(-c2ccc(F)cc2)o1
1.01 (inactive)

Using known records, supply z-score for CC(C)(C)OC(=O)CC[C@]12N=C(c3ccc(OCCCO)cc3)O[C@H]1c1ccccc1N(Cc1ccccc1)C2=O
-0.746 (inactive)

Indicate the recorded z-score value for this compound: CCCC=C(CCC)[C@@H](NC(=O)CCc1ccccc1)c1ccc(C(F)(F)F)cc1
0.318 (inactive)

Please report the measured z-score for [N-]=[N+]=Nc1ccccc1C[C@]1(C(=O)O)N=C(c2ccc(OCCCO)cc2)O[C@H]1c1ccccc1
-0.522 (inactive)

Provide one value: measured z-score of CC(C)C[C@@H]1NC(=O)CNC(=O)[C@@]23C(=O)N[C@@H](Cc4ccccc4)C2[C@H](C)[C@@]2(C)O[C@H]2C3/C=C/C/C=C\CNC1=O (some centres not stated)
0.297 (inactive)

Supply recorded z-score for O=C1OCCC/C=C\[C@H]2OC34C=CCN(c5ccc6ccccc6c5)C(=O)[C@H]3N(CCCO)C(=O)[C@@H]4C12 (some centres not stated) here.
-0.942 (inactive)

Determine from records and report z-score for O=C1NC(=O)C2C1C=CC(C(O)c1ccccn1)N2Nc1ccc(Cl)cc1Cl (configuration not stated)
-0.0259 (inactive)

Let me know recorded z-score for CCOC(=O)C1=C[C@@H](c2ccccc2)N(S(=O)(=O)c2ccc(C)cc2)[C@H]1c1ccccc1 , thanks.
0.294 (inactive)

Identify measured z-score corresponding to COCC(=C=CC[C@H](O)c1cccc(OCCO)c1)C[C@H](O)COCc1ccccc1
1.74 (inactive)

Name the recorded z-score of the item CC1(C)C(=O)C(c2ccccc2)=C2CN3C(=O)N(CCc4ccccc4)C(=O)C3(Cc3ccc(C(F)(F)F)cc3)C=C21 (configuration not stated) in your answer.
0.866 (inactive)

Answer with the recorded z-score for the compound listed here: CCOC(=O)C1=C[C@@H](C(C)(C)C)N(S(=O)(=O)c2ccc(C)cc2)[C@H]1c1cccc(Cl)c1
-0.651 (inactive)

Tell me z-score reported for COc1ccc([Si](C)(C)[C@@H]2[C@@H](CC(=O)N3Cc4ccccc4C[C@H]3CO)O[C@]3(C(=O)N(Cc4ccc(N5CCC5=O)cc4)c4ccccc43)[C@H]2C)cc1
-0.448 (inactive)

Look up and report measured z-score for this entry: C=C(C)[C@@H]1CC=C(C(O)C2C=CC3C(=O)N(c4ccccc4)C(=O)C3N2Nc2ccc(C#N)cc2)CC1 (some centres not stated)
-0.345 (inactive)

Identify measured z-score corresponding to C=CCC(OC(C)=O)[C@@H]1[C@@H](N(Cc2cc3ccccc3o2)C(=O)c2ccc(-c3ccccc3)cc2)c2cc(OCCCO)ccc2N1C(=O)Cc1ccc(OC)cc1 (some centres not stated)
0.289 (inactive)

# return recorded z-score for entry COc1cc(NN2C(C(O)c3ccc(I)cc3)C=CC3C(=O)N(c4ccccc4)C(=O)C32)cc(OC)c1OC (configuration not stated)
0.0938 (inactive)

Specify z-score for CCOC(=O)C1=C[C@@H](C(C)(C)C)N(S(=O)(=O)c2ccc(C)cc2)[C@H]1c1ccc(C)cc1 and stop.
-0.1 (inactive)

Give the reported z-score for this compound. O=C1N(CCS(=O)(=O)c2ccccc2)Cc2ccccc2[C@@H]2OC(c3ccc(OCCCO)cc3)=N[C@]12CCS(=O)(=O)c1ccccc1
-0.897 (inactive)

Name the recorded z-score of the compound listed here: Cc1ccc(S[C@]2(C(=O)NC(C)C)CC(=O)N(C(C)C)[C@@H]2c2ccc(CO)cc2I)cc1
-0.3 (inactive)

Give z-score for the following compound: COCC(=C=CC[C@@H](O)c1ccc(OCCO)cc1)CCO
-0.482 (inactive)

Check the records and state z-score for CCOC(=O)C1=CCC(c2ccccc2)N(S(=O)(=O)c2ccc([N+](=O)[O-])cc2)C1 (configuration not stated)
-0.536 (inactive)

// fetch z-score given entry COC(=O)[C@@]1(Cc2ccccc2CN=[N+]=[N-])N=C(c2ccc(OCCCO)cc2)O[C@H]1c1ccccc1
-0.923 (inactive)

In one line, give reported z-score of the entry C=C(/C(=C/C[C@@H](OC(C)=O)c1ccc(CO)o1)c1cc(C(=O)OC)ccc1OC)C(C)C .
2.78 (inactive)

Entry CN(C)CCCNC(=O)[C@@H]1c2ccccc2C(=O)N(C2CCCCC2)[C@H]1c1ccc(CO)cc1 needs its z-score filled in; supply it.
-0.291 (inactive)

For the compound COC(=O)C1=CC(CCCO)=CC(C)N(Cc2cccc(OC(F)(F)F)c2)C=C1C(=O)OC (configuration not stated) , report z-score.
0.308 (inactive)

Give reported z-score value for COc1ccc(C#Cc2ccc3c(c2)[C@]2(C(=O)N3)[C@H](c3ccc(OCCO)cc3)N3[C@H](c4ccccc4)[C@H](c4ccccc4)OC(=O)[C@H]3[C@@H]2C(=O)N2CCc3cc(OC)c(OC)cc3C2)cc1
0.198 (inactive)

State its z-score: C=CCC(OC(C)=O)[C@@H]1[C@@H](N(Cc2ccc(-c3ccccc3)cc2)C(=O)c2ccc(C)cc2)c2cc(OCCCO)ccc2N1C(=O)Cc1ccc2ccccc2c1 (some centres not stated)
-0.515 (inactive)

Output z-score of C=C(COC)C(=O)CC[C@H](OC(C)=O)c1ccc(OCCO)cc1
1.69 (inactive)

Output z-score of COc1ccc(CCNC(=O)[C@@]2(Cc3ccccc3I)c3ccccc3C(=O)N(Cc3ccccc3Cl)[C@H]2c2ccc(CO)cc2)cc1
0.752 (inactive)
